Recorded values, source patent US12527325B2.

Test system: Spodoptera littoralis
Experiment: Example B9: Spodoptera littoralis (Egyptian Cotton Leaf Worm), cotton leaf disc spray
Type: in vivo
Conditions: foliar, 72 h, application rate of 200 ppm, sprayed cotton leaf discs, L1 larvae, 3 days after infestation, read-out: control in at least one of the three categories (mortality, anti-feedant or growth inhibition)
attribute_measured: percent control (mortality, anti-feedant effect or growth inhibition) at 200 ppm

Query: Item under review: CC(NC(=O)c1cc(C(F)(F)F)cc(S(=O)(=O)C(F)(F)F)c1)c1nccnc1-c1ccccn1 (centres unmarked) . Reported percent control (mortality, anti-feedant effect or growth inhibition) at 200 ppm?
Result: ≥ 80%

Query: Look up percent control (mortality, anti-feedant effect or growth inhibition) at 200 ppm for this compound: CC(NC(=O)c1cc(C(F)(F)F)cc(C(F)(F)C2CC2)c1)c1nccnc1-c1ncc(C2CC2)cn1 (centres unmarked)
Result: ≥ 80%

Query: May I ask what percent control (mortality, anti-feedant effect or growth inhibition) at 200 ppm has been recorded for CC(NC(=O)c1cc(C(F)(F)F)nc(C2(C#N)CC2)c1)c1nccnc1-c1ccccn1 (centres unmarked) ?
Result: ≥ 80%

Query: Returns the measured percent control (mortality, anti-feedant effect or growth inhibition) at 200 ppm for the input compound. Input: CC(NC(=O)c1cc(C2CC2)cc(C(F)(F)F)c1)c1nccnc1-c1ncccn1 (centres unmarked)
Result: ≥ 80%

Query: I'd like to know its percent control (mortality, anti-feedant effect or growth inhibition) at 200 ppm. The compound in question is `C[C@H](NC(=O)c1cc(C(F)(F)F)cc(C(F)(F)C2CC2)c1)c1nccnc1-c1ccc(Br)cn1`
Result: ≥ 80%

Query: Can you share its percent control (mortality, anti-feedant effect or growth inhibition) at 200 ppm? I mean this compound: CC(NC(=O)c1cc(C(F)(F)F)cc(C(C)(C)C#N)c1)c1nccnc1-c1ncccn1 (centres unmarked)
Result: ≥ 80%

Query: Could you tell me which percent control (mortality, anti-feedant effect or growth inhibition) at 200 ppm is on file for CC(NC(=O)c1cc(C(F)(F)F)cc(C(F)(F)C2CC2)c1)c1nccnc1-c1ccccn1 (centres unmarked) ?
Result: ≥ 80%

Query: # query: percent control (mortality, anti-feedant effect or growth inhibition) at 200 ppm of entry CC(NC(=O)c1cc(C(F)(F)F)nc(C2(C#N)CC2)c1)c1nccnc1-c1ncc(C2CC2)cn1 (centres unmarked)
Result: ≥ 80%

====

Attribute: percent control (mortality or growth inhibition) at 200 ppm
System: Plutella xylostella
Assay: Example B5: Plutella xylostella (Diamond Back Moth)
Type: in vivo
Details: 192 h, application rate of 200 ppm, 24-well artificial diet, eggs, 8 days after infestation, read-out: control in at least one of the two categories (mortality or growth inhibition)

[
  {
    "compound": "CC(NC(=O)c1cc(C(F)(F)F)cc(C(C)(C)C#N)c1)c1nccnc1-c1ccc(Br)cn1 (stereo not shown) [P9]",
    "value_measured": "≥ 80%"
  }
]

Query: GET /values?readout=percent control (mortality or growth inhibition) at 200 ppm&item= CC(NC(=O)c1cc(C(F)(F)F)cc(C(F)(F)C2CC2)c1)c1nccnc1-c1ccccn1 (stereo not shown) [P20]
Result: ≥ 80%

Query: Which percent control (mortality or growth inhibition) at 200 ppm value belongs to CC(NC(=O)c1cc(OCC2CC2)nc(C(F)(F)F)c1)c1nccnc1-c1ncccn1 (stereo not shown) [P43] ?
Result: ≥ 80%

Query: Which percent control (mortality or growth inhibition) at 200 ppm reading was recorded for the compound CC(NC(=O)c1cc(C(F)(F)F)cc(C(C)(C)C#N)c1)c1nccnc1-c1ccccn1 (stereo not shown) [P7] ?
Result: ≥ 80%

====

Test system: Chilo suppressalis
Experiment: Example B4: Chilo suppressalis (Striped Rice Stemborer)
Assay type: in vivo
Conditions: 144 h, application rate of 200 ppm, artificial diet, L2 larvae, 6 days after infestation, read-out: control in at least one of the three categories (mortality, anti-feedant or growth inhibition)
Procedure: Example B4: Chilo suppressalis (Striped Rice Stemborer) 24-well microtiter plates with artificial diet were treated with aqueous test solutions prepared from 10′000 ppm DMSO stock solutions by pipetting. After drying, the plates were infested with L2 larvae (6-8 per well). The samples were assessed for mortality, anti-feeding effect, and growth inhibition in comparison to untreated samples 6 days after infestation. […]
attribute_measured: percent control (mortality, anti-feedant effect or growth inhibition) at 200 ppm

[
  {
    "compound": "CC(NC(=O)c1cc(C(F)(F)F)cc(C2(C#N)CC2)c1)c1nccnc1-c1ncccn1 (centres unmarked)",
    "value_measured": "≥ 80%"
  },
  {
    "compound": "CC(NC(=O)c1cc(C2CC2)cc(C(F)(F)F)c1)c1nccnc1-c1ccc(Cl)cn1 (centres unmarked)",
    "value_measured": "≥ 80%"
  },
  {
    "compound": "CC(NC(=O)c1cc(C(F)(F)F)cc(C2(C#N)CC2)c1)c1nccnc1-c1ccc(Br)cn1 (centres unmarked)",
    "value_measured": "≥ 80%"
  },
  {
    "compound": "CC(NC(=O)c1cc(C2CC2)nc(C(F)(F)F)c1)c1nccnc1-c1ncccn1 (centres unmarked)",
    "value_measured": "≥ 80%"
  },
  {
    "compound": "CC(NC(=O)c1cc(C2CC2)cc(C(F)(F)F)c1)c1nccnc1-c1ncc(Br)cn1 (centres unmarked)",
    "value_measured": "≥ 80%"
  },
  {
    "compound": "CC(NC(=O)c1cc(OC(F)F)cc(S(=O)(=O)C(F)(F)F)c1)c1nccnc1-c1ncccn1 (centres unmarked)",
    "value_measured": "≥ 80%"
  }
]

Query: Would you mind telling me what percent control (mortality, anti-feedant effect or growth inhibition) at 200 ppm value was observed for CC(NC(=O)c1cc(C(F)(F)F)cc(S(=O)(=O)C2CC2)c1)c1nccnc1-c1ncccn1 (centres unmarked) ?
Result: ≥ 80%

Query: Request the reported percent control (mortality, anti-feedant effect or growth inhibition) at 200 ppm associated with Cc1cnc(-c2nccnc2C(C)NC(=O)c2cc(C(F)(F)F)cc(S(=O)(=O)C(F)(F)F)c2)nc1 (centres unmarked)
Result: ≥ 80%

====

Measured percent control (mortality, anti-feedant effect or growth inhibition) at 200 ppm, listed per entry for reference.
System: Chilo suppressalis
Assay: Example B4: Chilo suppressalis (Striped Rice Stemborer)
Format: in vivo
Conditions: 144 h, application rate of 200 ppm, artificial diet, L2 larvae, 6 days after infestation, read-out: control in at least one of the three categories (mortality, anti-feedant or growth inhibition)

Record excerpt, results attached:
[
  {
    "molecule": "CC(NC(=O)c1cc(C(F)(F)F)cc(C(C)(C)C#N)c1)c1nccnc1-c1ncccn1 (stereo not shown)",
    "value_measured": "≥ 80%"
  },
  {
    "molecule": "Cc1cnc(-c2nccnc2C(C)NC(=O)c2cc(C(F)(F)F)cc(C3(C#N)CC3)c2)nc1 (stereo not shown)",
    "value_measured": "≥ 80%"
  },
  {
    "molecule": "CC(NC(=O)c1cc(Cl)nc(C(F)(F)F)c1)c1nccnc1-c1ncccn1 (stereo not shown) [P1]",
    "value_measured": "≥ 80%"
  }
]

// next entry
Query: Requested read-out: percent control (mortality, anti-feedant effect or growth inhibition) at 200 ppm. Entry: CC(NC(=O)c1cc(C2CC2C(F)(F)F)cc(C(F)(F)F)c1)c1nccnc1-c1ncccn1 (stereo not shown)
Result: ≥ 80%
